Give measured IC50 for each item. Keep answers brief.
- TARGET: UniProt P37288
- Sequence (P37288 whole entry): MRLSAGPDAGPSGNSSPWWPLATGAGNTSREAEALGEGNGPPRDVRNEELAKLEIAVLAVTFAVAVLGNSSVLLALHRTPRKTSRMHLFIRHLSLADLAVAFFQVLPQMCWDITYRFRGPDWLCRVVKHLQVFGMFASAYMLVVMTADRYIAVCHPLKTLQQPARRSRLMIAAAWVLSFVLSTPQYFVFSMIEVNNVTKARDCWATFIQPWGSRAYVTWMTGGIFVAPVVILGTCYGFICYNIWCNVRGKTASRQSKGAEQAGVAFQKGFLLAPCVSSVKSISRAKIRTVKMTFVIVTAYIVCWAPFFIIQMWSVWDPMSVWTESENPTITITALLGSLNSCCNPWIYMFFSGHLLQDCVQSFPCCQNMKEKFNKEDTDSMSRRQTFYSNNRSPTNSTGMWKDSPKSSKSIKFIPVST
- PROTOCOL: Vasopressin V1A receptor antagonist assay (AVP-evoked calcium, FLIPR, CHO-AVPR1a cells)
- Type: cell-based
- MEASUREMENT_CONTEXT: read-out: V1a IC50

I need IC50 for every entry listed below, if you could help.
1. COCCN1Cc2cc(Cl)ccc2-n2c(nnc2C2CC3(C2)CN(c2ccccn2)C3)C1 [compound 39]
2. CC1c2nnc(C3CC4(C3)CN(c3ccc(F)cn3)C4)n2-c2ccc(Cl)cc2CN1C(=O)C(F)F (centres unmarked) [compound 176]
3. O=C(C1C[C@H]1F)N1Cc2cc(Cl)ccc2-n2c(nnc2C2CC3(C2)CN(c2ccc(F)cn2)C3)C1 (some centres unmarked) [compound 158]
4. CCOC(=O)N1Cc2cc(Cl)ccc2-n2c(C3CC4(C3)CN(c3ncc(F)cn3)C4)nnc2C1C (single isomer, unassigned) [Cpd 172A]

Reply:
1. < 100 nM
2. < 100 nM
3. < 100 nM
4. < 100 nM

Measured values drawn from patent US11186577B2 for this set.
